- ASSAY TARGET: T1, HCV Core1-169 (hepatitis C virus (HCV-1), UniProt P26664 1-169)
- T1 sequence: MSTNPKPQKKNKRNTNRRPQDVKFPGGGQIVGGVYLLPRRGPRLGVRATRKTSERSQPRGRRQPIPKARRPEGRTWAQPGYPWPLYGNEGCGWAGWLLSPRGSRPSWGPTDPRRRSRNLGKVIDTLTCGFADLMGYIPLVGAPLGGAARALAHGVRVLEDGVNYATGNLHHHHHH
- MEASUREMENT NOTES: SPR sandwich, capture mAb C11-3
QUANTITY NAME: expected percent binding (%)
Numbers only; they are read as %.

// expected percent binding lookup, key: HCV 208A-126 (antibody, V domains shown) VH: QLQQSGPVLVKPGASVMISCKTSGYTFTENAMHWVKQSHGKSLEWIGGVNPNNGDTIFNQKFKGKATLTVDKSSNTAFTELRSLPSEESTVYYCVRRGLDFFDYWGQGTSVTVSS VL: DIVLTQSPASLAVSLGQRATISCRASQSVSTSRYSYMHWYQQKPGQPPKLLIKYASNLESGVPARFSGSGSGTDFTLNIHPVAEEDTAAYYCQHSWEFPFTFGSGTKLEIKR
1.2
